From: BindingDB's records for doi:10.1016/j.bmcl.2012.06.023

Target: Subtilisin-like protease 1 (Plasmodium falciparum, UniProt O61142)
Sequence (O61142 220-690 limits assumed): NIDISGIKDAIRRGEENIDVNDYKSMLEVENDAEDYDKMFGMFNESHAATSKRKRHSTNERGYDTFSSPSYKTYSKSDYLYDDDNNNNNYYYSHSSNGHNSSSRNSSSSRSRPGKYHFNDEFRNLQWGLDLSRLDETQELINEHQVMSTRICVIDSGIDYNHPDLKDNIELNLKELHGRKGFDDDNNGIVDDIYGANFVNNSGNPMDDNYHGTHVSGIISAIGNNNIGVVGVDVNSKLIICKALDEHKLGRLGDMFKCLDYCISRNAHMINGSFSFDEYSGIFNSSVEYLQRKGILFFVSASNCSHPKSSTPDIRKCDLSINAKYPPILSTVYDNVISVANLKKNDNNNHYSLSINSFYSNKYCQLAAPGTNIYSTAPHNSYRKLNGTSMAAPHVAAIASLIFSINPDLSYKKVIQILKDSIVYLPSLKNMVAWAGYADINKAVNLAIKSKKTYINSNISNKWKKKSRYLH
MEASURED_ENDPOINT: pIC50
Answers are plain numbers, as −log10 of the molar value.

Need pIC50 of Cc1cc(N=NCc2ccc(C#N)cc2)c2cc3c(cc2n1)OCO3 , thanks.
4.40
